Numbers sourced from the supplement of paper PMC6757056.

B1: library; a variant is named by its letters at N, in order (parent)
chain: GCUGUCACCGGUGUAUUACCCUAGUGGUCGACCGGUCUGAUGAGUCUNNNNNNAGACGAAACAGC

Variants of: B1
experiment description: normalized RNA/DNA level without ligand (relative to sTRSVctl = 100) (log10 (% of sTRSVctl)); ligand: hypoxanthine (xanthine aptamer); higher = less ribozyme self-cleavage, higher mRNA level
run conditions: HEK293T, reporter: mCherry (pCS4076), ligand present: no
assay endpoint: normalized RNA/DNA level without ligand (log10)
Give your answer as a number; write no unit.

Reported normalized RNA/DNA level without ligand (log10) for GCUGUCACCGGUGUAUUACCCUAGUGGUCGACCGGUCUGAUGAGUCUGAUACUAGACGAAACAGC [GAUACU] : what is it?
1.87

What do we get for GCUGUCACCGGUGUAUUACCCUAGUGGUCGACCGGUCUGAUGAGUCUGAGAUAAGACGAAACAGC [GAGAUA] ?
1.65

What do we get for GCUGUCACCGGUGUAUUACCCUAGUGGUCGACCGGUCUGAUGAGUCUUCUCUCAGACGAAACAGC [UCUCUC] ?
1.94

What do we get for GCUGUCACCGGUGUAUUACCCUAGUGGUCGACCGGUCUGAUGAGUCUGAGUGAAGACGAAACAGC [GAGUGA] ?
1.45

What do we get for GCUGUCACCGGUGUAUUACCCUAGUGGUCGACCGGUCUGAUGAGUCUACAUGAAGACGAAACAGC [ACAUGA] ?
1.66

What do we get for GCUGUCACCGGUGUAUUACCCUAGUGGUCGACCGGUCUGAUGAGUCUAGCUGGAGACGAAACAGC [AGCUGG] ?
1.57

What do we get for GCUGUCACCGGUGUAUUACCCUAGUGGUCGACCGGUCUGAUGAGUCUAGCCACAGACGAAACAGC [AGCCAC] ?
1.83

What do we get for GCUGUCACCGGUGUAUUACCCUAGUGGUCGACCGGUCUGAUGAGUCUUUGCAGAGACGAAACAGC [UUGCAG] ?
1.79

What do we get for GCUGUCACCGGUGUAUUACCCUAGUGGUCGACCGGUCUGAUGAGUCUGAACUUAGACGAAACAGC [GAACUU] ?
1.87

What do we get for GCUGUCACCGGUGUAUUACCCUAGUGGUCGACCGGUCUGAUGAGUCUCAGGCCAGACGAAACAGC [CAGGCC] ?
2

What do we get for GCUGUCACCGGUGUAUUACCCUAGUGGUCGACCGGUCUGAUGAGUCUGGCAGUAGACGAAACAGC [GGCAGU] ?
1.85

What do we get for GCUGUCACCGGUGUAUUACCCUAGUGGUCGACCGGUCUGAUGAGUCUCCAGCCAGACGAAACAGC [CCAGCC] ?
1.92

What do we get for GCUGUCACCGGUGUAUUACCCUAGUGGUCGACCGGUCUGAUGAGUCUAUGCGUAGACGAAACAGC [AUGCGU] ?
1.82

What do we get for GCUGUCACCGGUGUAUUACCCUAGUGGUCGACCGGUCUGAUGAGUCUGCGGAAAGACGAAACAGC [GCGGAA] ?
1.53

What do we get for GCUGUCACCGGUGUAUUACCCUAGUGGUCGACCGGUCUGAUGAGUCUGCAAGCAGACGAAACAGC [GCAAGC] ?
1.57

What do we get for GCUGUCACCGGUGUAUUACCCUAGUGGUCGACCGGUCUGAUGAGUCUUAAUAAAGACGAAACAGC [UAAUAA] ?
1.78

What do we get for GCUGUCACCGGUGUAUUACCCUAGUGGUCGACCGGUCUGAUGAGUCUAGGACUAGACGAAACAGC [AGGACU] ?
1.8

What do we get for GCUGUCACCGGUGUAUUACCCUAGUGGUCGACCGGUCUGAUGAGUCUUUAGAGAGACGAAACAGC [UUAGAG] ?
1.56

What do we get for GCUGUCACCGGUGUAUUACCCUAGUGGUCGACCGGUCUGAUGAGUCUAGGGUCAGACGAAACAGC [AGGGUC] ?
1.94

What do we get for GCUGUCACCGGUGUAUUACCCUAGUGGUCGACCGGUCUGAUGAGUCUAUUAUCAGACGAAACAGC [AUUAUC] ?
1.97

What do we get for GCUGUCACCGGUGUAUUACCCUAGUGGUCGACCGGUCUGAUGAGUCUCGUAGCAGACGAAACAGC [CGUAGC] ?
1.87

What do we get for GCUGUCACCGGUGUAUUACCCUAGUGGUCGACCGGUCUGAUGAGUCUGCACCUAGACGAAACAGC [GCACCU] ?
1.94

What do we get for GCUGUCACCGGUGUAUUACCCUAGUGGUCGACCGGUCUGAUGAGUCUGAAUUAAGACGAAACAGC [GAAUUA] ?
1.8

What do we get for GCUGUCACCGGUGUAUUACCCUAGUGGUCGACCGGUCUGAUGAGUCUCCAUGUAGACGAAACAGC [CCAUGU] ?
1.83

What do we get for GCUGUCACCGGUGUAUUACCCUAGUGGUCGACCGGUCUGAUGAGUCUAUAAGUAGACGAAACAGC [AUAAGU] ?
1.63

What do we get for GCUGUCACCGGUGUAUUACCCUAGUGGUCGACCGGUCUGAUGAGUCUUUAUUAAGACGAAACAGC [UUAUUA] ?
1.91

What do we get for GCUGUCACCGGUGUAUUACCCUAGUGGUCGACCGGUCUGAUGAGUCUGGGCGGAGACGAAACAGC [GGGCGG] ?
1.58

What do we get for GCUGUCACCGGUGUAUUACCCUAGUGGUCGACCGGUCUGAUGAGUCUAUGGAGAGACGAAACAGC [AUGGAG] ?
1.21

What do we get for GCUGUCACCGGUGUAUUACCCUAGUGGUCGACCGGUCUGAUGAGUCUUAUGUCAGACGAAACAGC [UAUGUC] ?
1.95

What do we get for GCUGUCACCGGUGUAUUACCCUAGUGGUCGACCGGUCUGAUGAGUCUAAUUCAAGACGAAACAGC [AAUUCA] ?
1.86

What do we get for GCUGUCACCGGUGUAUUACCCUAGUGGUCGACCGGUCUGAUGAGUCUUUCUAAAGACGAAACAGC [UUCUAA] ?
1.85
